EXPERIMENTAL_PROTOCOL: yeast display, Sf9 membrane polyspecificity reagent, FACS + sequencing; frameworks hold sequencing errors

- SEQ_STRING: "QVQLVESGGGLVQAGGSLRLSCAASGRTFTYNVMGWYRQAPGKERELVAAITSGGSTYYADSVKGRFTISRDNAKNTVYLQMNSLKPEDTAVYYGAARGYSYKWDNRYDYWGQGTQVTVSS"
  polyreactivity (PSR sort gate): "high polyreactivity"
- SEQ_STRING: "QVQLVESGGGLVQAGGSLRLSCAASGRSLEHNAMGWYSQAPGKERELVAAISGSGGTTYYADSVKGRFTISRDNAKNTVYLQMNSLKPEDTAVYYCNAKLYRSFDYWGQGTQVTVSS"
  polyreactivity (PSR sort gate): "low polyreactivity"
- SEQ_STRING: "QVQLVESGGCLVHAGGSHRLRCAASGSTFSRYAMGWYRHAPGKERELVAAISSSGGSTYYADSVKGRFTISRDNAKNTVYLQMNSLKPEDTAVYYCAARIWRTRRYDYWGQGTQVTVSS"
  polyreactivity (PSR sort gate): "high polyreactivity"
- SEQ_STRING: "QVQLVESGGGLVQAGGSLRLSCAASGRTFKSNAMRWYRQAPGKERELVATISRGGGSTYYADSVKGRFTISRDNAKNTVYLQMNSLKPEDTAVYYCAIGSNSYLRYHYTYPYDYWGQGTQVTVSS"
  polyreactivity (PSR sort gate): "high polyreactivity"
- SEQ_STRING: "QVQLVESGGGLVQAGGSLRLSCAASGGIFRSYAMGWYRQAPGKETELVAAISWSTVSTYADSVKGRFTISRDNAKNTVYLQMYSLKPEDSAVYYCAASPFEYCYYYYGLYKEYYYWGQGNQVTVSS"
  polyreactivity (PSR sort gate): "low polyreactivity"

----------
EXPERIMENTAL_PROTOCOL: yeast display, Sf9 membrane polyspecificity reagent, FACS + sequencing; frameworks hold sequencing errors

- SEQ_STRING: "QVQLVESGGGLVQAGGSLRLSCAASGSIFGDNAMGWYRQAPGKERELVAAITSSGGSTYYADSVKGRFTISRDNAKNSVYLQMNSLKPEDTAVYYCNADFGYGWYLRYDYWGLGTQVTVSS"
  polyreactivity (PSR sort gate): "high polyreactivity"
- SEQ_STRING: "QVQLVESGGGLVQAGGSLRLSCAASGRIFARNAMGWYRQAPGKERELVAAISSSGGTYYADSVKGRFTISRDNAKNTVYLQMNSLKPEDTAVYYCNARVRTQQRWVDYWGQGTQVTVSS"
  polyreactivity (PSR sort gate): "high polyreactivity"
- SEQ_STRING: "QVQLVESGGGLVQAGGSLRLSCAASGRTFTSYVMGWYIQAPGKERELVAAITRGGRSYYADSVKGRFTISRDNAKKTVYLQMNSLTPEDTAVYYCGARYSVSYNYWGQGTQVTVSS"
  polyreactivity (PSR sort gate): "high polyreactivity"
- SEQ_STRING: "QVQLVESGGGLVQAGGSLRLSCAASGRTFDDNAMGWYRQAPGKERELVAAISSTGSTNYADSVKGRFTISRDNAKNTVYLQMNSLKPEDTAVYYCNTDRGHERAYYYWGQGTQVTVSS"
  polyreactivity (PSR sort gate): "low polyreactivity"
- SEQ_STRING: "QVQLVESGGVLVQAGGSLRLSCDASGRIFKYNAMGWYRQAPGKERELVDVITSGVSTYYADSVKGRFTISRDNAKNTVYLQMNSLKPEDTAVYYCAKKYYKVHKFDYWCQGTQVTVSS"
  polyreactivity (PSR sort gate): "low polyreactivity"
- SEQ_STRING: "QVQLVESGGGLVQAGGSLRLSCPASGSIFRGYGMGWSRQAPGKERELVAAMSSSGGTYYADSVKGRFTISRDNAKKTVYLQMNSLKPEDTAVYYCNARVRTQQRWVDYWGQGTQVTVSS"
  polyreactivity (PSR sort gate): "high polyreactivity"
- SEQ_STRING: "QVQLVESGGGLVQAGGSLRLTCAASGSTFVRYAMGWYRQAPGKERELVATIRRVGSTNYADSVKGRFTISRDNAKNTVYLQMNSLKPEDTEVYYCAARSLRYGRGMYYWGQGTQVTVSS"
  polyreactivity (PSR sort gate): "high polyreactivity"
- SEQ_STRING: "QVQLVESGGGLVQAGGSLRLICAASGSTFDVNAMGWYRQAPGKERELVAAISWNSGSTYYADSVKGRFTISRDNAKNTVYLQMNSLKPEDTAVYYCAATYGTGRRSKYGYWGQGTQVTVSS"
  polyreactivity (PSR sort gate): "high polyreactivity"
- SEQ_STRING: "QFQLVESGGGLVQAGGSLRLSCAASGRTSLGYDMRWYRQAPGKERELVAAITRSGGYTYYADSVKGRFTISRDNAKNTVYLQMNSLKPEDTAVYYCAAYWRYSGYYYWGQGTQVTVSS"
  polyreactivity (PSR sort gate): "low polyreactivity"
- SEQ_STRING: "QVQLVESGGGLVQAGCSLRLSCAASGSTFYRYAMGWYRQAPGKERELVAAITSGTGTYYADSVKGRFTISRDNAKNTVYLQMNSLKPEDTAVYYCNARRYLRGYWGQGTQVTVSS"
  polyreactivity (PSR sort gate): "low polyreactivity"
- SEQ_STRING: "QVQLVDSGGCLVQAGRSLRLSCAASGSIYVPNAMGWYRQAPRKERDLVAGISRGGSTNYADSVKGRFTISRDNAKNSVYLQMKRLKPEDTAVYYCARDSRTIRYYAWFYPFRYDYWGQGTQVTVSS"
  polyreactivity (PSR sort gate): "low polyreactivity"
- SEQ_STRING: "QVQLVESGGGLVQAGGSLRLSCAASGSTYSYYAMGWYRQAPGKERELVAAITSSGSSTYYADSVKARFTISRDNAKNTVYLPMISLKPEDPAVYYCAAGRYRYTYRYFTAWYGYWGQGTQVTVSS"
  polyreactivity (PSR sort gate): "high polyreactivity"
- SEQ_STRING: "QDQLVESGGGFVQARGSLRLSCAACGFIFYANAMGWYRQAPGKERELVAGISWSGTSTYYADSVKGRFTISRDNAKNTVYLQMNSLKPEDTAVYYCNRVFYHFDVDRYDYWGQGTQVTVSS"
  polyreactivity (PSR sort gate): "low polyreactivity"
- SEQ_STRING: "QVQLVESGGGLVQAGGSLRLSCAASGFTFGIYAMGRYRQAPGKERELVAAISRSGGSTYYADSVKGRFTISRDNAKNTVYLQMNSLKPEDTAVYYCNTRWGYARGGRYGYWGQGTQVTVSS"
  polyreactivity (PSR sort gate): "high polyreactivity"
- SEQ_STRING: "QVQLVESGVGLVQAGGSLRLSCAASGFTFDDNAMGWYRQAPGKERDFVASITNSTGSTYADSVKGRFTISRDNAKNTFYLQMNSLKPEDTAVDYCAVDNISNWAVENDYWGQGTQVTVSS"
  polyreactivity (PSR sort gate): "low polyreactivity"
- SEQ_STRING: "QVQLVESGGGLVQAGGSLRLSCAASGRIFAWYTMGWYRQAPGKERELVAAISWNGGRTYYADSVKGRFTISRDNAKNTVYLQMNSLKPEDTAVYYCNADWYWRVYWGQGTQVTVSS"
  polyreactivity (PSR sort gate): "high polyreactivity"
- SEQ_STRING: "QDQLVESGGGLVQAGGSLRLSCAASVSIFGYYAMGWYRQAHGKERELVADITSSGSTYYADSVKGRFTISRDNAKNTVYLQMNSLKPEDTAVYYCAADQYYLGSIDGFEYWGQGTQVTVSS"
  polyreactivity (PSR sort gate): "low polyreactivity"
- SEQ_STRING: "QGQLVESGGGLVQAGGSLRLSCAASGSIFGGYGMGWYRQAPGKERELVAAITSGSSTYYADSVKGRFTISRDNAKNTVYLQMNSLKPEDTAVYYCAARPYPHSAYEGDYWGRGTQVTVSS"
  polyreactivity (PSR sort gate): "low polyreactivity"
- SEQ_STRING: "QDQLVESGGGLVQAGGSLRLSCAASGLTFDWYTMGWYRQAPGKERELVATINSGGSTDYADSVKGRFTISRDNAKNTVYLQMNSLKPEDTAVYYCNAEYGYSGVGDDYWGQGTQVTVSS"
  polyreactivity (PSR sort gate): "low polyreactivity"
- SEQ_STRING: "QVQLVESGGGLVQAGGSLRLSCAASGSTFYVYAMGWYRQAPGKERELVAAITSGDDTNYADSVKGRFTISRDNAKNTVYLQMNSLKPEDPAVYYCAAEAVGYGSPRGYYWYDYWGQGTQVTVSS"
  polyreactivity (PSR sort gate): "high polyreactivity"
- SEQ_STRING: "QVQLVESGGGLVQAGGSLRLSCAASGIIFKLYAMGWYRQAPGKEREFVATITKTGGRTYYEDSVKGRFTISRDNAKNTVYLQMNSLKPEDTAVYYCAARRVNGKMYYWGQGTQVTVSS"
  polyreactivity (PSR sort gate): "high polyreactivity"
